Source of measurements: patent US20200407457A1

biological target: TRAILR2 receptor on the surface of human tumor cells (human, UniProt O14763 56-440); assay: cell-based or functional assay
readoutType: eff. (efficiency %), cytotoxic effect on Reh cells
Give your result in % as a bare value.

Known eff. (efficiency %), cytotoxic effect on Reh cells results, listed for orientation:
Ask: eff. (efficiency %), cytotoxic effect on Reh cells lookup needed for Zapadcine-3b (antibody, V domains shown, MMAE coupled through linker PY-MAA by thiol bridge coupling, non-cleavable; positions not given) VH: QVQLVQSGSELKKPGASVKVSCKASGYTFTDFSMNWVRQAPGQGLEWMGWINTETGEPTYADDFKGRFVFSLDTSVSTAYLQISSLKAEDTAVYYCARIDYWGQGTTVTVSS VL: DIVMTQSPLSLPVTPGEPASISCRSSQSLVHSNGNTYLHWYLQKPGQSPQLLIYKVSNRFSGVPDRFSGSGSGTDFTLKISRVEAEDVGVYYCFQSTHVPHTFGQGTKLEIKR , thanks.
Result: 75.3

Ask: eff. (efficiency %), cytotoxic effect on Reh cells lookup needed for Zapadcine-3e (antibody, V domains shown, MMAF coupled through linker MC by thiol conventional coupling, non-cleavable; positions not given) VH: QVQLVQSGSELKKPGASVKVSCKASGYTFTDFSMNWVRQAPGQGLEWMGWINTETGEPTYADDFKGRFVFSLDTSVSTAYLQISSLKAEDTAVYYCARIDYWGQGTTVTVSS VL: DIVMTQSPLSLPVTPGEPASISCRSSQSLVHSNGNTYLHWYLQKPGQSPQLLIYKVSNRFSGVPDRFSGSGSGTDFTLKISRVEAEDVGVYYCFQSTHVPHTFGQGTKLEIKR , thanks.
Result: 77.4

---
Ask: eff. (efficiency %), cytotoxic effect on Reh cells lookup needed for Zaptuzumab (antibody, V domains shown) VH: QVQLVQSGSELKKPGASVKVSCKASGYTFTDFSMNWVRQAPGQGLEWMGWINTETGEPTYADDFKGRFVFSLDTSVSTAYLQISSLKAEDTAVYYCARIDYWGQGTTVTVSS VL: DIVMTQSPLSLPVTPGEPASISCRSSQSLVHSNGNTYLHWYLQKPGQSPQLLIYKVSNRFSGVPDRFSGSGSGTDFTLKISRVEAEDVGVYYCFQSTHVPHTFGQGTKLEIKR , thanks.
Result: 45
